SUBJECT_OF_TEST: Nanoluciferase-BRD9 fusion protein (3×FLAG-NLuc-BRD9) in SYO-1 cells (Homo sapiens, UniProt Q9H8M2)
Construct: expressed in transfected cells; host or cells: SYO-1
Sequence (Q9H8M2 whole entry, the tested form may be a part): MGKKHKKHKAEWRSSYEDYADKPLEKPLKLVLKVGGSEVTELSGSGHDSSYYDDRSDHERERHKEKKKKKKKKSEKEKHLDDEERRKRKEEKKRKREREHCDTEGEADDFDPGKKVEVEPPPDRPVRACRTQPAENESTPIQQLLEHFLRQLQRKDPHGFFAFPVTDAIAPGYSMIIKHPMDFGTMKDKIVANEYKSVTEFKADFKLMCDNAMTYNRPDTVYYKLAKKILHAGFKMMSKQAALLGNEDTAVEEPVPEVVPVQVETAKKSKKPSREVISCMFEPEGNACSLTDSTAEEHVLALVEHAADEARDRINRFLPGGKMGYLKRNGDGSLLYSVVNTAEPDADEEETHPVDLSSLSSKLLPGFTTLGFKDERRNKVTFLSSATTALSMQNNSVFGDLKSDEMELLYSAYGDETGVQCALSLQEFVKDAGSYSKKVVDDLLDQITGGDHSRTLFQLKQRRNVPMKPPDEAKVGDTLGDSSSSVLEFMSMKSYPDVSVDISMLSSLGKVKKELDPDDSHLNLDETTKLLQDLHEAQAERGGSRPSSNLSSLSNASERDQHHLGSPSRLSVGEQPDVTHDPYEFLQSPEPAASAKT
METHOD_NOTES: SYO1 BRD9 NanoLuc Degradation Assay
Format: cell-based
ASSAY_CONTEXT: 6 hours; SYO-1 cells expressing 3×FLAG-NLuc-BRD9; top dose 1 μM; read-out: SYO1 BRD9-NanoLuc degradation IC50
DC50: recorded values

Observe how each entry below is paired with its result.
CNc1cc2c(=O)n(C)cc(-c3cc(OC)c(CN4CC(C(=O)NCCCCCOc5cccc6c5C(=O)N(C5CCC(=O)NC5=O)C6=O)C4)c(OC)c3)c2cn1 (centres unmarked) = < 10 nM
COc1cc(-c2cn(C)c(=O)c3cnc(N(C)C)cc23)cc(OC)c1CN1CCC(CCN2CCN(c3ccc4c(c3)C(=O)N(C3CCC(=O)NC3=O)C4=O)CC2)CC1 (centres unmarked) = < 10 nM
COc1cc(-c2cn(C)c(=O)c3cc(NCCCCCCCCNC(=O)COc4cccc5c4C(=O)N(C4CCC(=O)NC4=O)C5=O)ncc23)cc(OC)c1CN(C)C (centres unmarked) = ≥ 10 nM
COc1cc(-c2cn(C)c(=O)c3cnc(NC(=O)CCOCCOCCNc4ccc5c(c4)C(=O)N(C4CCC(=O)NC4=O)C5=O)cc23)cc(OC)c1CN(C)C (centres unmarked) = ≥ 100 nM

Here is the next item to consider.
For the compound COc1cc(-c2cn(C)c(=O)c3cnc(N(C)C)cc23)cc(OC)c1CN1CC(N(C)Cc2cccc3c2C(=O)N(C2CCC(=O)NC2=O)C3=O)C1 (centres unmarked) , report DC50.
≥ 10 nM
